system: HepG2 cells; assay: HepG2 cytotoxicity assay; settings: read-out: HepG2 cytotoxicity assay IC50; dose response confirmation
Property Label: pIC50
Answer as the number alone; pIC50 is minus log10 of concentration in mol/L.

Check out these entries, answers already filled in.
Query (compound): `Cc1[nH]c(C)c(-c2ccc(OCc3ccc(OC(F)(F)F)cc3)nc2)c(=O)c1Cl` ; field requested: pIC50
4.00

Look up pIC50 for this compound: `Cc1[nH]c(C)c(-c2ccc(CCc3ccc(F)cc3F)cc2)c(=O)c1Cl`
4.00

What value of pIC50 has been reported for the following compound? `CCC(C)(C)n1c(C)cc2c3c(N)nc(N)nc3ccc21`
8.77

Entry `O=c1c2c([nH]c3cc(Cl)ccc13)CCCC2` : reported pIC50 = ?
4.00

Form field: reported pIC50 of `CC(C)N1CCN(CCCNc2c3ccccc3nc3ccccc23)CC1.Cl`
4.84

Give its pIC50 value. Item: `Cc1[nH]c(C)c(-c2ccc(-c3ccc(OCC(F)(F)F)cc3)nc2)c(=O)c1Cl`
4.00

pIC50 lookup needed for `Cc1[nH]c(C)c(-c2ccc(Oc3ccc(C(F)(F)F)cc3)cc2)c(=O)c1Br` , thanks.
5.24

Name the reported pIC50 value associated with the compound `Cc1ccc(S(=O)(=O)N2CCCN(C(=O)c3cc(-c4ccccc4)n[nH]3)CC2)cc1`
4.00

// query pIC50 value for entry CCc1c(C)nc(-n2nc(C)cc2NC(=O)C(CC)c2ccccc2)[nH]c1=O (centres unmarked)
6.02

Quick one: pIC50 of `COc1cccc(NC(=O)[C@H](C(C)C)n2c(=O)[nH]c3ccccc3c2=O)c1` ?
4.00

Continuing:
Quick one: pIC50 for `CC(C)N1CCN(CCCCNc2c3ccccc3nc3ccccc23)CC1.Cl` ?
5.24

Return reported pIC50; argument: `Cc1[nH]c(C)c(-c2ccc(Oc3ccccc3)cc2)c(=O)c1Br`
4.46

Suppose we examine the compound `Cc1nc(C)c(-c2ccc(Oc3ccc(OC(F)(F)F)cc3)cc2)c(OC(=O)c2ccc(CN(C)C)cc2)c1Cl` ; what pIC50 value has been reported?
4.61

Which pIC50 is listed for CC(C#N)Cc1ccc(-c2cnc(N)c3cc(-c4ccnc(N)n4)ccc23)cc1 (centres unmarked) ?
5.24

// pIC50 lookup, key: `CCc1c(CCNCCCCCCNCCc2ccc([N+](=O)[O-])cc2)ccc(OC)c1OC.Cl`
5.29

What does the record list as pIC50 for `CCc1cc2c3c(N)nc(N)nc3ccc2n1C(C)(C)C` ?
8.77

// query pIC50 value for entry `Cn1nc(C(F)(F)F)c(-c2ccc(Br)cc2)c1NC(=O)Cc1ccccc1F`
4.00

meta.source: paper PMC6753678
